Each entry below carries its recorded z-score.
Test: survival rescue of mitochondrial mutant cells in low glucose, primary screen, MELAS cybrids, Rieske KO mouse fibroblasts, CellTiter-Glo (AID 1508586);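 also: z relative to plate mean and SD of compound and empty wells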
Conditions: Rieske KO mouse fibroblast survival, CellTiter-Glo 72 h

Some solved cases for reference:
Structure: OCCN1C[C@H](O)[C@@H](O)[C@H](O)[C@H]1CO
Experimental Result: 0.78
//
Structure: Cc1ccc(C(=O)NC2CCCCC2)cc1-c1ccc(C(=O)NCC2CC2)cc1
Experimental Result: 0.203
//
Structure: Nc1ccc(S(=O)(=O)c2ccc(N)cc2)cc1
Experimental Result: 0.158
//
Structure: Cn1c(-c2nonc2N)nc2cnccc21
Experimental Result: -0.308
//
Structure: COc1ccccc1C1=C(Nc2ccccc2)C(=O)NC1=O
Experimental Result: -0.271

Turning now to a further record.
**Q:** Respond only with z-score recorded for `O=C(O[C@H]1CN[C@H](C#Cc2cc3ncnc(Nc4ccc5c(ccn5Cc5cc(F)ccc5F)c4)c3s2)C1)N1CCOCC1`
**A:** -0.0743

* * *

Each entry below carries its recorded cell count.
Assay: modifiers of HSF1 nuclear foci, imaging, Selleck Cancer Library (AID 1347162)
Details: human cells, at 10 µM; measured here: cell number

**Q:** Respond only with cell count recorded for `O=C1[C@H](CC[C@H](O)c2ccc(F)cc2)[C@@H](c2ccc(O)cc2)N1c1ccc(F)cc1`
**A:** 6580

**Q:** Respond only with cell count recorded for `CCn1c(-c2nonc2N)nc2cnc(Oc3cccc(NC(=O)c4ccc(OCCN5CCOCC5)cc4)c3)cc21`
**A:** 7080

**Q:** Respond only with cell count recorded for `C[C@]12CCC(=O)C=C1CC[C@@H]1[C@@H]2[C@@H](O)C[C@@]2(C)[C@H]1CC[C@]2(O)C(=O)CO`
**A:** 6980

**Q:** Respond only with cell count recorded for `Nc1ncn([C@@H]2O[C@H](CO)[C@@H](O)[C@H]2O)c(=O)n1`
**A:** 7120

**Q:** Respond only with cell count recorded for `O=c1[nH]cc(F)c(=O)[nH]1`
**A:** 7020

**Q:** Respond only with cell count recorded for `Cc1ccc(-c2cc(C(F)(F)F)nn2-c2ccc(S(N)(=O)=O)cc2)cc1`
**A:** 5490

**Q:** Respond only with cell count recorded for `CC(=O)O[C@]1(C(C)=O)CC[C@H]2[C@@H]3C=C(C)C4=CC(=O)CC[C@]4(C)[C@H]3CC[C@@]21C`
**A:** 7050

* * *

Assay: modulators of glucocorticoid suppression of NF-kB, cell-based, luciferase, IL-1B stimulus, dexamethasone (AID 624486);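 also: 100% = mean signal of vehicle control wells on the plate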
Conditions: NF-kB luciferase reporter, IL-1B + dexamethasone, luminescence; actives lie on both sides, concentration not given here
Each entry below carries its recorded percent of negative control (+Dex).
// units = %; emit number, no label

Some solved cases for reference:
Molecule: CS(=O)(=O)Nc1cccc(-c2ccc3c(NC(=O)C4CC4)n[nH]c3c2)c1
U: %
Experimental Result: 96
//
Molecule: COC1CCC2NC3C4NC5CCC(OC)CC5C4C4C(=O)NC(=O)C4C3C2C1 (stereo not drawn)
U: %
Experimental Result: 106
//
Molecule: Cc1cccc(C2NNCC2c2ccc3ncccc3n2)n1 (stereo not drawn)
U: %
Experimental Result: 58.5
//
Molecule: COc1cccc(-n2nc(C)c3c(N/N=C(\C)c4ccncc4)ncnc32)c1
U: %
Experimental Result: 100
//
Molecule: Cn1cc(C2=C(c3cn(C)c4c([N+](=O)[O-])cccc34)C(=O)NC2=O)c2ccccc21
U: %
Experimental Result: 102
//
Molecule: Cn1cc(C2=C(c3c(S(C)=O)n(C)c4ccccc34)C(=O)NC2=O)c2ccccc21 (stereo not drawn)
U: %
Experimental Result: 97.5
//
Molecule: NS(=O)(=O)c1ccc(Nc2ncc(-c3ccccc3)o2)cc1
U: %
Experimental Result: 117

Turning now to a further record.
**Q:** Respond only with percent of negative control (+Dex) recorded for `CC(C)(C)c1ccc(Oc2nccc(-c3c(-c4ccc(F)cc4)ncn3C3CCNCC3)n2)cc1`
**A:** 106
